Where do the numbers come from? From the supplement of paper PMC9170038.

Test system: MS2 coat protein
Assay: apparent KD of MS2 coat protein, switch OFF state (with FMN for OFF switches, without FMN for ON switches); designed switch direction (-1 OFF switch, 1 ON switch): 1; higher = weaker reporter binding
Conditions: FMN input: 0 or 200 uM; Eterna round: R93 (includes R88 designs)
quantity_measured: apparent KD of MS2 coat protein (µM)
Only the number, expressed in µM, is required.

Input line: Please give the documented apparent KD of MS2 coat protein of UGGAGACAUGAGGAUCACCCAUGUGAGAAGAGGCGAGGAUAUCGAAAGAAAGAAGAGAAACGAGAAGGCGCGAGGC [salish99-SS1-047]
Output line: 0.0276

Input line: Please give the documented apparent KD of MS2 coat protein of GGAAAUAAAAGAGAGGAUAUCCAAAGGAAAACAUGAGGAUCACCCAUGUAAAAGGAAGGAAACUGGGAGAAGGCUCAAAAUAAGG [salish99-ss2-010]
Output line: 0.0322

Input line: Please give the documented apparent KD of MS2 coat protein of AUGUAUAGCCUCGAGGAUAUCCUGUCAUGCACAUGAGGAUCACCCAUGUAAGAGAGAGUUUAAUGGGAGAAGGCGAGUUCUCGGU [JR_SS002_Sub1706]
Output line: 0.0666

Input line: Please give the documented apparent KD of MS2 coat protein of AAUAAUUAUAGCAAGGAUAUCGGUAUAAAGACAUGAGGAUCACCCAUGUAAUAUGGUUAAAUUUACGAGAAGGUGCAGGGUGAAA [JR_SS002_Sub009]
Output line: 0.142

Input line: Please give the documented apparent KD of MS2 coat protein of AGAAAUAAAAGAGAGGAUAUCCAAAAGAAAACAUGAGGAUCACCCAUGUAAAAGAAAAUAAAAUGGGAGAAGGCUCACAUAAAGA [Topaz 34]
Output line: 0.0374

Input line: Please give the documented apparent KD of MS2 coat protein of AAGAAACAUGAGGAUCACCCAUGUACCCAAAAGGGAGGAUAUGCGAAAGAAAGAAAGAAAGCAGAAGGCCCAUGAA [Artaxerxes I Longhand]
Output line: 0.0253
